Source listed as PubChem BioAssay.

Target: Left-right determination factor 2 (Homo sapiens)
Assay: LEFTY2 binders on small-molecule microarrays, primary screen, biochemical, small-molecule microarray, 635 nm fluorescence scan (AID 1110)
Conditions: LEFTY2 binding, higher = more signal

MOLECULE | composite z-score
COC(=O)[C@]1(CO)N=C(c2ccc(OCCCO)cc2)O[C@@H]1c1ccccc1CN=[N+]=[N-] | -0.266
CCCCC(O)C1C=CC2C(=O)N(C)C(=O)C2N1Nc1ccccc1 (centres undefined) | -0.431
COCCOC(=O)N1C(=O)[C@@]2(c3cc(C#Cc4ccc(OC)cc4)ccc31)[C@H](c1ccc(OCCO)cc1)N1[C@H](c3ccccc3)[C@H](c3ccccc3)OC(=O)[C@H]1[C@@H]2C(=O)N1CCCCCCC1 | 0.954
CC(C)(C)N1CC=CC23O[C@@H]4/C=C\CCCOC(=O)C4[C@H]2C(=O)N(CCCCCCO)[C@@H]3C1=O (some centres undefined) | -1.03
Cc1ccc(S[C@]2(C(=O)NC3CC3)CC(=O)N(Cc3cc(C(F)(F)F)cc(C(F)(F)F)c3)[C@@H]2c2ccc(CO)cc2I)cc1 | -0.175
NCCCC[C@@H]1NC(=O)[C@H]2C[C@@H](C(=O)O)[C@@H](c3cccc(OCCO)c3)N2C1=O | 1.53
COc1ccc([Si](C)(C)[C@H]2[C@H](CCO)O[C@@]3(C(=O)N(Cc4ccc(N5CCOC5=O)cc4)c4ccccc43)[C@@H]2C)cc1 | -0.284
CN(C)CCCCNC(=O)[C@H]1C[C@H]2C(=O)NCC(=O)N2[C@H]1c1cccc(OCCO)c1 | -0.443
COc1ccc([Si](C)(C)[C@@H]2[C@@H](CCO)O[C@]3(C(=O)N(Cc4ccccc4)c4ccc(N5C(=O)c6ccccc6Oc6ccccc65)cc43)[C@H]2C)cc1 | -0.75
COC(=O)[C@@]1(Cc2ccccc2)[C@H]2c3cc(C(=O)N4CCCC4)n(Cc4ccc(C(F)(F)F)nc4)c3C[C@H]2CN1C(=O)c1ccccc1 | -0.208
O=C1NC(=O)C2C1C=CC(C(O)c1ccc(F)cc1)N2Nc1ccccn1 (centres undefined) | -0.0392
C=CCNC(=O)[C@@H]1[C@H]2C(=O)O[C@H](c3ccccc3)[C@H](c3ccccc3)N2[C@H](c2ccc(O)cc2)[C@@]12C(=O)Nc1ccc(C#CC3(O)CCCCCC3)cc12 | 0.0712
CN(C)CCCC[C@@H]1NC(=O)[C@@H]2C[C@H](C(=O)NCCCCCCNC(=O)CS)[C@H](c3cccc(OCCO)c3)N2C1=O | 0.0929
COC(=O)c1ccc([C@H](NC(=O)c2ccccc2)[C@]2(C)C[C@H]2C2CCCCC2)cc1 | -0.254
C=CCN1C(=O)[C@]2(O[C@H](CCO)[C@@H]([Si](C)(C)c3ccc(OC)cc3)[C@@H]2C)c2ccccc21 | -0.774
COc1ccc(CCNC(=O)[C@@H]2c3ccccc3C(=O)N(CC34CC5CC(CC(C5)C3)C4)[C@H]2c2ccc(CO)cc2)cc1 | 0.453
O=C1OCCC=C[C@H]2OC34C=CCN(CCN5CCOCC5)C(=O)[C@H]3N(CCCO)C(=O)[C@@H]4C12 (some centres undefined) | -0.861
COCCOC(=O)N1C(=O)[C@@]2(c3cc(C#CC4(O)CCCCCC4)ccc31)[C@H](C(=O)N1CCc3cc(OC)c(OC)cc3C1)[C@H]1C(=O)O[C@H](c3ccccc3)[C@H](c3ccccc3)N1[C@@H]2c1ccc(O)cc1 | 0.729
COc1cc2c(cc1O)C(c1ccc(CN3CCCC3)cc1)N(Cc1ccc([N+](=O)[O-])o1)CC2 (centres undefined) | 0.313
C[C@H]1NC(=O)C([C@@H](C)OCc2ccccc2)NC(=O)[C@@]23C(=O)N[C@@H](Cc4ccccc4)C2[C@H](C)[C@@]2(C)O[C@H]2C3/C=C/C/C=C\CNC1=O (some centres undefined) | 0.39
COC(=O)[C@@]1(CCC(=O)OC(C)(C)C)N=C(c2ccc(OCCCO)cc2)O[C@H]1c1ccccc1CN=[N+]=[N-] | -0.471
CCCC[C@@H](O)C1=C(COC)Cn2c(=O)n(-c3ccccc3)c(=O)n2[C@H]1CO | -0.1
COc1ccc(NN2C(C(O)c3cc(C(F)(F)F)cc(C(F)(F)F)c3)C=CC3C(=O)N(C4CCCCC4)C(=O)C32)cc1 (centres undefined) | -0.0774
CC(C)c1ccc(NN2C(C(O)C(C)C)C=CC3C(=O)N(c4ccccc4)C(=O)C32)cc1 (centres undefined) | 0.136
COC(=O)[C@@]1(Cc2ccccc2)[C@@H]2[C@@H](CC(=O)[C@H]2CC(=O)C(=O)N(C)C)CN1C(=O)c1ccccc1 | -0.116
C=CC[C@]1(C(=O)NCc2ccccc2)COC(c2ccc(OCCCO)cc2)=N1 | -1
COCCCNC(=O)[C@@]1(Sc2ccc(C)cc2)CC(=O)N(C2CCCCC2)[C@@H]1c1ccc(CO)cc1I | 0.816
CN(C)C(=O)[C@@]1(CCS(=O)(=O)c2ccccc2)N=C(c2ccc(OCCCO)cc2)O[C@H]1c1ccccc1N=[N+]=[N-] | 0.258
CCOC(=O)C1=C[C@@H](C(C)(C)C)N(S(=O)(=O)c2ccc(C)cc2)[C@H]1c1ccccc1Cl | 0.633
